assayedTarget: UniProtKB P41597
assayInfo: Concentration required to inhibit [125I]MCP-1 (Monocyte Chemoattractant Protein-1) binding to THP-1 cell
Assay type: cell-based
Sequence (P41597 whole entry): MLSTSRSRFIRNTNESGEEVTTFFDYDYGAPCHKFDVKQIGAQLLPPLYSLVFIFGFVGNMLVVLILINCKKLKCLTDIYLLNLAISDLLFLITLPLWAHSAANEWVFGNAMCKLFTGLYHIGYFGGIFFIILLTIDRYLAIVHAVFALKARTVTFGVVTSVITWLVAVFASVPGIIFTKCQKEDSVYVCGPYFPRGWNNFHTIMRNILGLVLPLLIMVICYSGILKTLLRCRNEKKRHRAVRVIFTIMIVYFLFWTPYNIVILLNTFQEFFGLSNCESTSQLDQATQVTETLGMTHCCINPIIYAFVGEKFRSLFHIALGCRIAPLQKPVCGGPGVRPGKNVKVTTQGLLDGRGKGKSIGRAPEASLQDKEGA
measurementKind: pIC50
The read-out pIC50 is expressed as -log10 of concentration in moles per litre.

CS(=O)(=O)c1ccc(CN2CCCN(CCC(O)(c3ccccc3)c3ccccc3)CC2)cc1 = 5.39

Please look at the following molecule next.
Reported pIC50 for NS(=O)(=O)c1ccc(CN2CCCN(CCC(O)(c3ccccc3)c3cccc(O)c3)CC2)cc1 (stereo not given) was 5.82

----------
assayedTarget: C-C chemokine receptor type 2 (Homo sapiens, UniProt P41597)
assayInfo: Percent inhibition of [125I]MCP-1 (Monocyte Chemoattractant Protein-1) binding to THP-1 cells at 100 uM
Type: cell-based
Sequence (P41597 whole entry, looked up): as the sequence (P41597 whole entry) above
Everything with inhibition lower than 90% is label 0; everything else, including exactly 90%, is label 1.

Use the examples below as a reference point.
CC(C)(C)c1ccc(C(O)(CCN2CCCN(Cc3ccc(S(C)(=O)=O)cc3)CC2)c2ccc(C(C)(C)C)cc2)cc1 = label 0
CN(C)c1ccc(C(O)(CCN2CCCN(Cc3ccc(S(C)(=O)=O)cc3)CC2)c2ccc(N(C)C)cc2)cc1 = label 0
CS(=O)(=O)c1ccc(CN2CCCN(CCC(O)(c3ccc(Cl)cc3)c3ccc(Cl)cc3)CC2)cc1 = label 1

Item CNc1cccc(C(O)(CCN2CCCN(Cc3ccc(S(C)(=O)=O)cc3)CC2)c2ccccc2)c1 (centres undefined) with inhibition of 90% or above?
label 0

Please check the record CS(=O)(=O)c1ccc(CN2CCCN(CCC(O)(c3ccccc3)c3cccc(CO)c3)CC2)cc1 (centres undefined) and state if its inhibition is at or above 90%.
label 1

Is the recorded value of inhibition equal to or greater than 90% for this compound? COc1cccc(C(O)(CCN2CCCN(Cc3ccc(S(C)(=O)=O)cc3)CC2)c2ccccc2)c1 (centres undefined)
label 1

Entry CS(=O)(=O)c1ccc(CN2CCCN(CCC(O)(c3ccc(F)cc3)c3cccc(O)c3)CC2)cc1 (centres undefined) : is its inhibition no less than 90%?
label 1

Entry CS(=O)(=O)c1ccc(CN2CCCN(CCC(O)(c3ccc(Cl)cc3)c3cccc(O)c3)CC2)cc1 (centres undefined) : is its inhibition no less than 90%?
label 1

----------
assayedTarget: C-C chemokine receptor type 2 (Homo sapiens)
assayInfo: Percent inhibition of [125I]MCP-1 (Monocyte Chemoattractant Protein-1) binding to THP-1 cells at 100 uM
Assay type: cell-based
measurementKind: inhibition (%)
The answer is to be given in %; state only the numeric part.

Form: molecule = "CS(=O)(=O)c1ccc(CN2CCCN(CCC(O)(c3ccc(O)cc3)c3ccc(O)cc3)CC2)cc1" ; inhibition = 83

Measured inhibition, "CS(=O)(=O)c1ccc(CN2CCCN(CCC(O)(c3cccc(O)c3)c3cccc(O)c3)CC2)cc1" : 108

// field: inhibition; key: "CS(=O)(=O)c1ccc(CN2CCCN(CCC(O)(c3ccc(F)cc3)c3ccc(F)cc3)CC2)cc1" ; value = 100

# inhibition of CS(=O)(=O)c1ccc(CN2CCCN(CCC(O)(c3cccc(O)c3)c3cc(F)cc(F)c3)CC2)cc1 (centres undefined) = 107

----------
assayedTarget: C-C chemokine receptor type 2 (Homo sapiens, UniProt P41597)
assayInfo: Concentration required to inhibit [125I]MCP-1 (Monocyte Chemoattractant Protein-1) binding to THP-1 cell; not determined
Assay type: cell-based
measurementKind: pIC50
Bear in mind: pIC50 is minus log10 of a mol/L concentration; give just that figure.

Looking up "CS(=O)(=O)c1ccc(CN2CCCN(CCC(O)(c3cccc(O)c3)c3cccc(O)c3)CC2)cc1" , I found its pIC50 recorded as 5.82
